Test system: Escherichia coli TOP10;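 further: peptides expressed intracellularly from a pBAD plasmid library in pooled LB shake-flask culture, induced with 0.3% L-arabinose, DNA abundance read by NGS, three biological replicates, DESeq2 with apeglm shrinkage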
Test: shrunken log2 fold change of peptide-encoding DNA abundance (4.5 h post-induction vs induction); higher = less antimicrobial activity (less host growth inhibition)
Conditions: time post-induction: 4.5 h; library: site-saturation at positions 5, 18, 19, 20
List of shrunken log2 fold change values.

Observe how each entry below is paired with its result.
{"residues": "RRIRWRPPRLPRPRPRPVVNPRP", "shrunken log2 fold change": 0.261}
{"residues": "RRIRIRPPRLPRPRPRPGDVPRP", "shrunken log2 fold change": -0.227}
{"residues": "RRIRRRPPRLPRPRPRPWLHPRP", "shrunken log2 fold change": 0.333}
{"residues": "RRIRVRPPRLPRPRPRPLFDPRP", "shrunken log2 fold change": -0.172}
{"residues": "RRIRWRPPRLPRPRPRPTMCPRP", "shrunken log2 fold change": -0.00672}

Please turn your attention to the following entry.
Identify measured shrunken log2 fold change associated with RRIRIRPPRLPRPRPRPSPLPRP
-0.499
